Listed here: molecules with reported pIC50 for Epidermal growth factor receptor (Homo sapiens, UniProt P00533).
pIC50: −log10 of the molar value.

# smilesRecord, targetDesc, pIC50
data = [
    ("OCCC#Cc1ccc2ncnc(Nc3ccc(F)c(Cl)c3)c2c1", "Epidermal growth factor receptor (Homo sapiens, UniProt P00533)", 6.73),
    ("C#Cc1cccc(Nc2ncnc3cc(OC)c(OC)cc23)c1", "Epidermal growth factor receptor (Homo sapiens, UniProt P00533)", 7.54),
    ("CC(C)(O)C#Cc1ccc2ncnc(Nc3ccc(F)c(Cl)c3)c2c1", "Epidermal growth factor receptor (Homo sapiens, UniProt P00533)", 6.82),
    ("Fc1ccc(Nc2ncnc3ccc(C#CCN4CCCCC4)cc23)cc1Cl", "Epidermal growth factor receptor (Homo sapiens, UniProt P00533)", 7.05),
    ("COc1cc2ncnc(Nc3cccc(C#CCCO)c3)c2cc1OC", "Epidermal growth factor receptor (Homo sapiens, UniProt P00533)", 6.40),
    ("Fc1ccc(Nc2ncnc3ccc(C#CCN4CCOCC4)cc23)cc1Cl", "Epidermal growth factor receptor (Homo sapiens, UniProt P00533)", 7.30),
    ("OCCCC#Cc1ccc2ncnc(Nc3ccc(F)c(Cl)c3)c2c1", "Epidermal growth factor receptor (Homo sapiens, UniProt P00533)", 6.94),
    ("Fc1ccc(Nc2ncnc3ccc(C#Cc4ccccc4)cc23)cc1Cl", "Epidermal growth factor receptor (Homo sapiens, UniProt P00533)", 6.48),
    ("COc1cc2ncnc(Nc3cccc(C#Cc4ccccc4)c3)c2cc1OC", "Epidermal growth factor receptor (Homo sapiens, UniProt P00533)", 6.04),
]
